Provide the recorded inhibition for the entries that follow.
test: growth inhibition, MDA-MB-436, cell-based, BGB or cisplatin combos, synergistic combos for chromothripsis tumors (AID 1671458); conditions: MDA-MB-436 breast carcinoma growth inhibition, drug combinations; measured here: cisplatin combination; at 5 µM; stronger effect = higher value;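 also: cells exposed for 96 hours; 0% = vehicle DMSO and 100% = killing by high DMSO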
Numbers only, in %.

>  <MOLECULE>
CCC1(O)C(=O)OCc2c1cc1n(c2=O)Cc2cc3cc(O)ccc3nc2-1 (stereo unspecified)

>  <VALUE MEASURED>
80.3

$$$$
>  <MOLECULE>
Nc1nc(NC2CC2)cc(-c2cccc(Cl)c2Cl)n1

>  <VALUE MEASURED>
15.8

$$$$
>  <MOLECULE>
Cc1cc(C)c(Nc2ccnc(Nc3ccc(C#N)cc3)n2)c(C)c1

>  <VALUE MEASURED>
45.4

$$$$
>  <MOLECULE>
O=c1[nH]c(=O)n(C2CC(O)C(CO)O2)cc1I (stereo unspecified)

>  <VALUE MEASURED>
-10.7

$$$$
>  <MOLECULE>
O=C1N=c2ccccc2=C1c1c(O)[nH]c2ccccc12

>  <VALUE MEASURED>
46

$$$$
>  <MOLECULE>
O=C(CCCCCCC(=O)Nc1ccc(I)cc1)NO

>  <VALUE MEASURED>
53.6

$$$$
>  <MOLECULE>
COc1ccc(-c2nc(-c3cc(C(F)(F)F)cc(C(F)(F)F)c3)n(Cc3ccc(C(N)=O)cc3)c2-c2ccc(OC)cc2)cc1

>  <VALUE MEASURED>
-13.3

$$$$
>  <MOLECULE>
Nc1ccccc1NC(=O)c1cnccn1

>  <VALUE MEASURED>
-2.01

$$$$

// batch mode: one inhibition value per listed entry
1. Cc1cc(C#N)cc(C)c1Oc1nc(Nc2ccc(C#N)cc2)nc(N)c1Br
2. O=c1[nH]c(=S)[nH]c2nc(-c3ccccc3)c(-c3ccccc3)nc12

Result:
1: -39.5; 2: -30.7

Request: Item under review: Cc1cn(C2C=CC(CO)O2)c(=O)[nH]c1=O (stereo unspecified) . Reported inhibition?
Result: -21
